- target system: Kappa-type opioid receptor (Cavia porcellus)
- Sequence (P41144 whole entry): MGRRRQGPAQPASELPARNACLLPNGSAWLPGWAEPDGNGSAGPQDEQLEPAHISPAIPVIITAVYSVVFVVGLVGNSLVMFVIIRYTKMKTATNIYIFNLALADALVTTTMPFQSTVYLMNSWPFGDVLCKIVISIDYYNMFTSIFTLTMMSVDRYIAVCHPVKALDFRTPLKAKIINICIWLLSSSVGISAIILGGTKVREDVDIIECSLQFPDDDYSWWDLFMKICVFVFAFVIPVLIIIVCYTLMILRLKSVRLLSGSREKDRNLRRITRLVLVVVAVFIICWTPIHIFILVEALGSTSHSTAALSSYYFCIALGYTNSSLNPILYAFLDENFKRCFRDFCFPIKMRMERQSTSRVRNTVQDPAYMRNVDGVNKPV

molecule | IC50, nM
Oc1ccc2c3c1OC1[C@@H](OCc4ccccc4)CCC4(O)C(C2)N(CC2CC2)CCC314 (stereo partly drawn) | 0.6
O=C(COC1CCC2(O)C3Cc4ccc(O)c5c4C2(CCN3CC2CC2)C1O5)C1[C@H]2C[C@@H]3C[C@@H](C[C@H]1C3)C2 (stereo partly drawn) | 3.3
Oc1ccc2c3c1OC1[C@@H](OCc4cccc5ccccc45)CCC4(O)C(C2)N(CC2CC2)CCC314 (stereo partly drawn) | 4.4
Oc1ccc2c3c1OC1[C@H](OCc4ccc5ccccc5c4)CCC4(O)C(C2)N(CC2CC2)CCC314 (stereo partly drawn) | 1.5
Oc1ccc2c3c1O[C@H]1[C@H](O)CC[C@@]4(O)[C@@H](C2)N(CC2CC2)CC[C@]314 (stereo in doubt; 7) | 1.8
Oc1ccc2c3c1OC1[C@H](OCc4cccc5ccccc45)CCC4(O)C(C2)N(CC2CC2)CCC314 (stereo partly drawn) | 6.1
Oc1ccc2c3c1OC1[C@@H](OCc4ccc5ccccc5c4)CCC4(O)C(C2)N(CC2CC2)CCC314 (stereo partly drawn) | 1.4
Oc1ccc2c3c1OC1[C@H](OCc4ccc(-c5ccccc5)cc4)CCC4(O)C(C2)N(CC2CC2)CCC314 (stereo partly drawn) | 1.5
Oc1ccc2c3c1O[C@H]1[C@H](O)CC[C@@]4(O)[C@@H](C2)N(CC2CC2)CC[C@]314 (stereo in doubt; 6) | 2.6
Oc1ccc2c3c1OC1[C@@H](OCc4c5ccccc5cc5ccccc45)CCC4(O)C(C2)N(CC2CC2)CCC314 (stereo partly drawn) | 34
Oc1ccc2c3c1OC1[C@@H](OCc4ccc(-c5ccccc5)cc4)CCC4(O)C(C2)N(CC2CC2)CCC314 (stereo partly drawn) | 12
Oc1ccc2c3c1OC1[C@H](OCc4ccccc4)CCC4(O)C(C2)N(CC2CC2)CCC314 (stereo partly drawn) | 2
Oc1ccc2c3c1OC1[C@H](OCc4c5ccccc5cc5ccccc45)CCC4(O)C(C2)N(CC2CC2)CCC314 (stereo partly drawn) | 27

###

pIC50: −log10 of the molar value.
Notes on pIC50 obtained with Mu-type opioid receptor (Cavia porcellus, UniProt P97266).
Sequence (P97266 whole entry): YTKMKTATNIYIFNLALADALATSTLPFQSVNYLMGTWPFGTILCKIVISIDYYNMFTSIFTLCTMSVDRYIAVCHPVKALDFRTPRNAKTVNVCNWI
metric name: pIC50

molecule | metric name | measured result
Oc1ccc2c3c1OC1[C@H](OCc4cccc5ccccc45)CCC4(O)C(C2)N(CC2CC2)CCC314 (stereo partly drawn) | pIC50 | 8.51
Oc1ccc2c3c1OC1[C@@H](OCc4cccc5ccccc45)CCC4(O)C(C2)N(CC2CC2)CCC314 (stereo partly drawn) | pIC50 | 9.00
Oc1ccc2c3c1OC1[C@@H](OCc4ccccc4)CCC4(O)C(C2)N(CC2CC2)CCC314 (stereo partly drawn) | pIC50 | 9.52
Oc1ccc2c3c1OC1[C@@H](OCc4c5ccccc5cc5ccccc45)CCC4(O)C(C2)N(CC2CC2)CCC314 (stereo partly drawn) | pIC50 | 8.18
Oc1ccc2c3c1OC1[C@H](OCc4c5ccccc5cc5ccccc45)CCC4(O)C(C2)N(CC2CC2)CCC314 (stereo partly drawn) | pIC50 | 7.80
Oc1ccc2c3c1OC1[C@H](OCc4ccc(-c5ccccc5)cc4)CCC4(O)C(C2)N(CC2CC2)CCC314 (stereo partly drawn) | pIC50 | 9.15
Oc1ccc2c3c1O[C@H]1[C@H](O)CC[C@@]4(O)[C@@H](C2)N(CC2CC2)CC[C@]314 (stereo in doubt; 6) | pIC50 | 8.96
Oc1ccc2c3c1OC1[C@H](OCc4ccc5ccccc5c4)CCC4(O)C(C2)N(CC2CC2)CCC314 (stereo partly drawn) | pIC50 | 8.77
O=C(COC1CCC2(O)C3Cc4ccc(O)c5c4C2(CCN3CC2CC2)C1O5)C1[C@H]2C[C@@H]3C[C@@H](C[C@H]1C3)C2 (stereo partly drawn) | pIC50 | 8.18
Oc1ccc2c3c1OC1[C@@H](OCc4ccc(-c5ccccc5)cc4)CCC4(O)C(C2)N(CC2CC2)CCC314 (stereo partly drawn) | pIC50 | 8.00
Oc1ccc2c3c1O[C@H]1[C@H](O)CC[C@@]4(O)[C@@H](C2)N(CC2CC2)CC[C@]314 (stereo in doubt; 7) | pIC50 | 9.30
Oc1ccc2c3c1OC1[C@H](OCc4ccccc4)CCC4(O)C(C2)N(CC2CC2)CCC314 (stereo partly drawn) | pIC50 | 8.62
Oc1ccc2c3c1OC1[C@@H](OCc4ccc5ccccc5c4)CCC4(O)C(C2)N(CC2CC2)CCC314 (stereo partly drawn) | pIC50 | 8.92

###

In this section, each of the molecules is paired with its reported IC50.
- target system: Opioid receptors; mu/kappa/delta (Homo sapiens, UniProt P41145+P41143+P35372)
- method description: Tested for the binding affinity against the opioid receptor in guinea pig brain using [3H]bremazocine
- Parameters: species or system Cavia porcellus
- condition parameters: target entry is the homologue from another species

molecule | IC50 (nM)
Oc1ccc2c3c1OC1[C@H](OCc4ccc(-c5ccccc5)cc4)CCC4(O)C(C2)N(CC2CC2)CCC314 (stereo partly drawn) | 3.3
Oc1ccc2c3c1OC1[C@@H](OCc4ccccc4)CCC4(O)C(C2)N(CC2CC2)CCC314 (stereo partly drawn) | 1.5
Oc1ccc2c3c1OC1[C@@H](OCc4ccc5ccccc5c4)CCC4(O)C(C2)N(CC2CC2)CCC314 (stereo partly drawn) | 4.7
